Each record here notes measured GI50.
- System: HCC-2998 colon
- protocol description: NCI tumour cell line growth inhibition, 48 h
test readout: GI50

In [3]: df
Out[3]:
                                    compound  assay_value
 0  CCN(CC)CCNC(=O)c1cn2ncnc(Oc3ccc(NC(=O)Nc4ccc(Cl)c(C(F)(F)F)c4)cc3)c2c1C      2.24 µM
 1  CCc1c2c(nc3ccc(OC(=O)NCc4ccc(B5OC(C)(C)C(C)(C)O5)cc4)cc13)-c1cc3c(c(=O)n1C2)COC(=O)[C@]3(O)CC      0.25 µM
 2  CS(=O)(=O)Nc1ccc(Nc2c3ccccc3nc3cc(N)ccc23)cc1      5.22 µM
 3  CN1CCN(c2ccc(N3Cc4ccccc4OC4=C3C(=O)c3c(O)ccc(O)c3C4=O)cn2)CC1      1.28 µM
 4  Cn1c2c(c3ccc(-c4ccn[nH]4)cc3c1=O)C(=O)c1ccccc1-2      11.6 µM
 5  CC(=O)CC(=O)Nc1c(C)[c]([Hg][O]C(C)=O)c(C)[c]([Hg][O]C(C)=O)[c]1[Hg][O]C(C)=O      17.6 µM
 6  CC(C)OP(=O)(OC(C)C)C([CH2][Sn]([CH3])([CH3])[Cl])P(=O)(OC(C)C)OC(C)C      22.6 µM
 7             Oc1ccccc1N=Cc1c(O)ccc2ccccc12      16.5 µM
 8  CC(C)CCC[C@@H](C)[C@H]1CCC2C3=CCn4c(=O)ccc(=O)n4C3CC[C@@]21C (stereo partly specified)     0.708 µM
 9  Clc1ccc(N2CCN(CCCN3CCN(c4cccc(Cl)c4)CC3)CC2)cc1      2.65 µM
10  O=C1OC(c2cccc(C(F)(F)F)c2)c2ccc3ccccc3c21 (stereo unspecified)     > 100 µM
11  CCOC(=O)c1ccc2[nH]c(O)c(C(=Nc3ccc(N(C)C(=O)CN4CCN(C)CC4)cc3)c3ccccc3)c2c1     0.655 µM
12  N#Cc1c(N)nc(NCc2ccccc2)c(C#N)c1-c1ccc(Cl)cc1      71.1 µM
13  COc1cc(-c2cc(/C=C/C(=O)c3ccc(N)cc3)[nH]n2)cc(OC)c1OC      2.01 µM
14  CN1C(=O)CC2(C)c3cc(O)ccc3N(C)C12 (stereo unspecified)      > 75 µM
15  Cc1ccc(S(=O)(=O)NC2=NCCN2C(=S)SN2CCn3c2nsc3=S)cc1        21 µM
